B1: glmS ribozyme (parent)
chain: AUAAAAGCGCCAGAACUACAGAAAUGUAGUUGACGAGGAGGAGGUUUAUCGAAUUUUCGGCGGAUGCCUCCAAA

- Variants of: B1
- METHOD SUMMARY: self-cleavage kobs at 2500 uM GlcN6P; higher = faster cleavage; RNA array
- ASSAY CONTEXT: with glucosamine-6-phosphate
Fewer inactive variants are shown than the library holds.
Exercise: for every item that follows, state its recorded self-cleavage kobs at 2500 uM GlcN6P.

Below, 10 variants whose answers are already recorded.
Fill blank: measured self-cleavage kobs at 2500 uM GlcN6P of the variant C16U G32U C34G A53C is ____.
< 1e-05 s⁻¹

Fill blank: measured self-cleavage kobs at 2500 uM GlcN6P of the variant G7U A14C A48U is ____.
< 1e-05 s⁻¹

Fill blank: measured self-cleavage kobs at 2500 uM GlcN6P of the variant C58G C67G C70G is ____.
8.09e-05 s⁻¹

Fill blank: measured self-cleavage kobs at 2500 uM GlcN6P of the variant A6G A53C U54A is ____.
5.76e-05 s⁻¹

Fill blank: measured self-cleavage kobs at 2500 uM GlcN6P of the variant A15G A36U G43C is ____.
< 1e-05 s⁻¹

Fill blank: measured self-cleavage kobs at 2500 uM GlcN6P of the variant G38U G44A is ____.
< 1e-05 s⁻¹

Fill blank: measured self-cleavage kobs at 2500 uM GlcN6P of the variant G13U A36G is ____.
< 1e-05 s⁻¹

Fill blank: measured self-cleavage kobs at 2500 uM GlcN6P of the variant A33G A52G U65G is ____.
< 1e-05 s⁻¹

Fill blank: measured self-cleavage kobs at 2500 uM GlcN6P of the variant G26A A39U G40C is ____.
0.000935 s⁻¹

Fill blank: measured self-cleavage kobs at 2500 uM GlcN6P of the variant G43U C61G is ____.
< 1e-05 s⁻¹

For every item in the list below, what is its measured self-cleavage kobs at 2500 uM GlcN6P?
1. G41U
2. G37A C50U G51U
3. A36C G40U U54A G63U
4. A15U U45C G66U C67G

1. 0.00263 s⁻¹
2. < 1e-05 s⁻¹
3. < 1e-05 s⁻¹
4. 0.000193 s⁻¹

For every item in the list below, what is its measured self-cleavage kobs at 2500 uM GlcN6P?
1. G40A U47A U49A C70A
2. C10U A52U

["< 1e-05 s⁻¹", "< 1e-05 s⁻¹"]

For every item in the list below, what is its measured self-cleavage kobs at 2500 uM GlcN6P?
1. G37A A39G C71G
2. U30A G40C A53G U56C
3. C8U G9U A15U G44U
4. G37C G41A C50G G60A C67G C68A

["0.000523 s⁻¹", "< 1e-05 s⁻¹", "< 1e-05 s⁻¹", "9.58e-05 s⁻¹"]

For every item in the list below, what is its measured self-cleavage kobs at 2500 uM GlcN6P?
1. G38U G63U
2. C10A A12C G51U

1. < 1e-05 s⁻¹
2. < 1e-05 s⁻¹

Entry source: the supplement of paper PMC7125110
